target: recombinant human ρ1 GABAC receptors (Homo sapiens); construct: expressed in transfected cells; host or cells: Xenopus laevis oocytes (cRNA injection); assay: Fit of kinetic schemes 1-4 to equilibrium GABA concentration–response curves; assay type: cell-based; details: Kb4 (equilibrium constant of ginkgolide, open state), Scheme 2, fitted; Ka fixed 3.2 μM, E fixed 11
endpointName: pKd
Scale note: pKd = -log10(concentration in M).

Data request: Bench note: what pKd did C[C@@H]1C(=O)O[C@H]2C[C@@]34[C@H]5C[C@@H](C(C)(C)C)[C@]36[C@@H](OC(=O)[C@@H]6O)O[C@@]4(C(=O)O5)[C@]21O [Ginkgolide A, ginkgolide A] show?
Data returned: 4.71

----------
target: recombinant human ρ1 GABAC receptors (Homo sapiens, UniProt P24046); construct: expressed in transfected cells; host or cells: Xenopus laevis oocytes (cRNA injection); experiment: Inhibition curves: ginkgolides co-applied with a fixed GABA concentration, two-electrode voltage clamp in Xenopus oocytes; assay type: cell-based; settings: IC50, 0.5 μM GABA
Sequence (P24046 22-479): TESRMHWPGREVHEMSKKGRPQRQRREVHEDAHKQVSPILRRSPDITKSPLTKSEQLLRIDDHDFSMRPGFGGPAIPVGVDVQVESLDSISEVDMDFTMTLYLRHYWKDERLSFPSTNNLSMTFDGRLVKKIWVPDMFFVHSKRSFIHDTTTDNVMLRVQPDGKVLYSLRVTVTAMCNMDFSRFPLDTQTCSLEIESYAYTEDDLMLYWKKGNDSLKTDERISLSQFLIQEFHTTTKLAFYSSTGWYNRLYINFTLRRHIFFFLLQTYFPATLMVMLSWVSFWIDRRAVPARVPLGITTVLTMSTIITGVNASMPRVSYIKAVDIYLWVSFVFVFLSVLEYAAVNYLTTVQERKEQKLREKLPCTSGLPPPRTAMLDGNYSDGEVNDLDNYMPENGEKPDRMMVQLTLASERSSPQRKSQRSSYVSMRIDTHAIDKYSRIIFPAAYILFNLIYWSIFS
endpointName: pIC50
Scale note: pIC50 = -log10(concentration in M).

Data request: Bench note: what pIC50 did C[C@@H]1C(=O)O[C@H]2C[C@@]34[C@H]5C[C@@H](C(C)(C)C)[C@]36[C@@H](OC(=O)[C@@H]6O)O[C@@]4(C(=O)O5)[C@]21O [Ginkgolide A, ginkgolide A] show?
Data returned: 5.24

----------
molecular target: recombinant human ρ1 GABAC receptors (Homo sapiens, UniProt P24046); construct: expressed in transfected cells; host or cells: Xenopus laevis oocytes (cRNA injection); experiment: Fit of kinetic schemes 1-4 to equilibrium GABA concentration–response curves; format: cell-based; details: Kb4 (equilibrium constant of ginkgolide, open state), Scheme 4, fitted; Ka fixed 3.2 μM, E fixed 11
endpointName: Kd (µM)
Answer in µM, number only, no unit symbol.

Data request: Bench note: what Kd did C[C@@H]1C(=O)O[C@H]2C[C@@]34[C@H]5C[C@@H](C(C)(C)C)[C@]36[C@@H](OC(=O)[C@@H]6O)O[C@@]4(C(=O)O5)[C@]21O [Ginkgolide A, ginkgolide A] show?
Data returned: 19.7

----------
biological target: recombinant human ρ1 GABAC receptors (Homo sapiens, UniProt P24046); construct: expressed in transfected cells; host or cells: Xenopus laevis oocytes (cRNA injection); test: Inhibition curves: ginkgolides co-applied with a fixed GABA concentration, two-electrode voltage clamp in Xenopus oocytes; type: cell-based; settings: IC50, 10 μM GABA
endpointName: IC50 (µM)
Answer in µM, number only, no unit symbol.

Data request: Bench note: what IC50 did C[C@@H]1C(=O)O[C@H]2C[C@@]34[C@H]5C[C@@H](C(C)(C)C)[C@]36[C@@H](OC(=O)[C@@H]6O)O[C@@]4(C(=O)O5)[C@]21O [Ginkgolide A, ginkgolide A] show?
Data returned: 874

----------
biological target: recombinant human ρ1 GABAC receptors (Homo sapiens, UniProt P24046); construct: expressed in transfected cells; host or cells: Xenopus laevis oocytes (cRNA injection); test: Fit of kinetic schemes 1-4 to equilibrium GABA concentration–response curves; assay type: cell-based; conditions: Kb3, Scheme 3, calculated
endpointName: pKd
Scale note: pKd = -log10(concentration in M).

Data request: Bench note: what pKd did C[C@@H]1C(=O)O[C@H]2C[C@@]34[C@H]5C[C@@H](C(C)(C)C)[C@]36[C@@H](OC(=O)[C@@H]6O)O[C@@]4(C(=O)O5)[C@]21O [Ginkgolide A, ginkgolide A] show?
Data returned: 2.17

----------
biological target: recombinant human ρ1 GABAC receptors (Homo sapiens); construct: expressed in transfected cells; host or cells: Xenopus laevis oocytes (cRNA injection); experiment: Fit of kinetic schemes 1-4 to equilibrium GABA concentration–response curves; format: cell-based; conditions: Kb0, Scheme 4, calculated
endpointName: Kd (µM)
Answer in µM, number only, no unit symbol.

Data request: Bench note: what Kd did C[C@@H]1C(=O)O[C@H]2C[C@@]34[C@H]5C[C@@H](C(C)(C)C)[C@]36[C@@H](OC(=O)[C@@H]6O)O[C@@]4(C(=O)O5)[C@]21O [Ginkgolide A, ginkgolide A] show?
Data returned: 1.3

----------
target: recombinant human ρ1 GABAC receptors (Homo sapiens, UniProt P24046); construct: expressed in transfected cells; host or cells: Xenopus laevis oocytes (cRNA injection); assay: Fit of kinetic schemes 1-4 to equilibrium GABA concentration–response curves; format: cell-based; conditions: Kb3, Scheme 2, calculated
endpointName: pKd
Scale note: pKd = -log10(concentration in M).

Data request: Bench note: what pKd did C[C@@H]1C(=O)O[C@H]2C[C@@]34[C@H]5C[C@@H](C(C)(C)C)[C@]36[C@@H](OC(=O)[C@@H]6O)O[C@@]4(C(=O)O5)[C@]21O [Ginkgolide A, ginkgolide A] show?
Data returned: 5.11

----------
target: recombinant human ρ1 GABAC receptors (Homo sapiens, UniProt P24046); construct: expressed in transfected cells; host or cells: Xenopus laevis oocytes (cRNA injection); experiment: Fit of kinetic schemes 1-4 to equilibrium GABA concentration–response curves; format: cell-based; details: Kb3, Scheme 4, printed with ±SE
endpointName: pKd
Scale note: pKd = -log10(concentration in M).

Data request: Bench note: what pKd did C[C@@H]1C(=O)O[C@H]2C[C@@]34[C@H]5C[C@@H](C(C)(C)C)[C@]36[C@@H](OC(=O)[C@@H]6O)O[C@@]4(C(=O)O5)[C@]21O [Ginkgolide A, ginkgolide A] show?
Data returned: 5.11
